Assay: log P by HPLC on reversed-phase column (EEC directive 79/831 Annex V.A8)
Type: physicochemical
Conditions: reversed-phase column (C18), 43° C., calibration with unbranched alkan-2-ones
# Lookup of reported chromatographic logP keyed by entry
Quantity measured: chromatographic logP

>>> observed_measurement("N#CCCn1c([O-])c(C(=O)c2cccc(C(F)(F)F)c2)[n+]2ccccc12")
1.35
>>> observed_measurement("Cc1ccc[n+]2c(C(=O)CCl)c([O-])n(CCC#N)c12")
0.8
>>> observed_measurement("CO/N=C/C(=O)c1c([O-])n(CCC#N)c2cccc[n+]12")
0.73
>>> observed_measurement("CC1(OC(=O)C(=O)c2c([O-])n(CCC#N)c3cccc[n+]23)CC1")
1.33
>>> observed_measurement("Cc1ccc[n+]2c(C(=O)C(F)(F)F)c([O-])n(CCC#N)c12")
1.35
>>> observed_measurement("N#CCCn1c([O-])c(C(=O)Nc2c(Cl)cccc2Cl)[n+]2ccccc12")
1.81
>>> observed_measurement("COC(=O)c1c([O-])n(CC(F)(F)F)c2cccc[n+]12")
1.01
>>> observed_measurement("COC(=O)C(=O)c1c([O-])n(CC(F)(F)F)c2cccc[n+]12")
1.18
>>> observed_measurement("O=C(c1c([O-])n(CC(F)(F)F)c2cccc[n+]12)C(F)(F)F")
1.79
>>> observed_measurement("N#CCCn1c([O-])c(C(=O)CCl)[n+]2ccccc12")
0.8
>>> observed_measurement("COC(=O)c1c([O-])n(CCC#N)c2cccc[n+]12")
0.39
